biological target: IKKe (Homo sapiens); assay: Kinase profiling IKKe; type: biochemical; conditions: 100 micromolar inhibitor concentration; 100 is no change
Sequence (Q14164 whole entry, species assumed): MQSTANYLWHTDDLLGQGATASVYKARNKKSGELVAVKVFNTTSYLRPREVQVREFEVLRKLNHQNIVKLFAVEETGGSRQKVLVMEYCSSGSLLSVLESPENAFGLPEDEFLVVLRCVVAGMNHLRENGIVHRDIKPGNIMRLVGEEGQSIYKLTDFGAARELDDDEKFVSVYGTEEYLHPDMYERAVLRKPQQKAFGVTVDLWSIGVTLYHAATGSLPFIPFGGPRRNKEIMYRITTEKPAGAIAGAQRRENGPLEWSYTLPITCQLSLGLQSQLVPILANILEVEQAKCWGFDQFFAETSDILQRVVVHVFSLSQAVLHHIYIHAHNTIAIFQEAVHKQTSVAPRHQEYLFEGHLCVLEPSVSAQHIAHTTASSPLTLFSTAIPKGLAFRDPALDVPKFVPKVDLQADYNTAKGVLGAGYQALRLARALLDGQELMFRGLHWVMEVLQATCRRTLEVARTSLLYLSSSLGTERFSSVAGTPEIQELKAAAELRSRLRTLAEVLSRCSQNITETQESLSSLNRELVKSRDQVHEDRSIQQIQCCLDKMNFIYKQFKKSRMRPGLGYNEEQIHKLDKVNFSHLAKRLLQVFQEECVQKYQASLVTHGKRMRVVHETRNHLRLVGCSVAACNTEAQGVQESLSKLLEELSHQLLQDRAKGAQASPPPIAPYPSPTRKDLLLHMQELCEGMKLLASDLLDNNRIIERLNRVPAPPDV
Use 1.0 when the recorded residual kinase activity, IKKe is no lower than 80; use 0.0 when it is lower.

I'd appreciate it if you could say whether "CC(=O)Nc1nc2cc(C)ccc2s1" has residual kinase activity, IKKe at least equal to 80. 1.0

I'd appreciate it if you could say whether "O=C(Nc1nc2ccc(O)cc2s1)c1ccccc1" has residual kinase activity, IKKe at least equal to 80. 0.0

I'd appreciate it if you could say whether "O=C(Nc1nc2ccc(O)cc2s1)c1ccncc1" has residual kinase activity, IKKe at least equal to 80. 0.0

I'd appreciate it if you could say whether "O=C(Nc1nc2ccc(O)cc2s1)c1cccnc1" has residual kinase activity, IKKe at least equal to 80. 0.0

---

system: CK2; assay: Kinase profiling CK2; type: biochemical; conditions: 100 micromolar inhibitor concentration; 100 is no change
Provide the reported residual kinase activity, CK2 of each item.
Write no unit; give the number alone.

// "CC(=O)Nc1nc2ccc([N+](=O)[O-])cc2s1" : residual kinase activity, CK2 value = 51

// "O=C(Nc1nc2ccc(O)cc2s1)c1ccccc1" : residual kinase activity, CK2 value = 16

// "CC(=O)Nc1nc2ccc(C#N)cc2s1" : residual kinase activity, CK2 value = 66

// "O=C(Nc1nc2cc(O)ccc2s1)c1cccnc1" : residual kinase activity, CK2 value = 88

// "CC(=O)Nc1nc2cc(O)ccc2s1" : residual kinase activity, CK2 value = 54

// "COC(=O)c1cccc(C(=O)Nc2nc3cc(OC)ccc3s2)c1" : residual kinase activity, CK2 value = 97

// "CC(=O)Nc1nc2cc(F)ccc2s1" : residual kinase activity, CK2 value = 81

// "CC(=O)Nc1nc2ccc(F)cc2s1" : residual kinase activity, CK2 value = 91

// "COC(=O)c1cccc(C(=O)Nc2nc3ccc(F)cc3s2)c1" : residual kinase activity, CK2 value = 86

// "COC(=O)c1cccc(C(=O)Nc2nc3ccc(C(F)(F)F)cc3s2)c1" : residual kinase activity, CK2 value = 89

// "COc1ccc2sc(NC(=O)c3ccccc3)nc2c1" : residual kinase activity, CK2 value = 78

// "O=C(Nc1nc2ccc(O)cc2s1)c1ccncc1" : residual kinase activity, CK2 value = 50

---

target: HER4 (Homo sapiens, UniProt Q15303); experiment: Kinase profiling HER4; assay type: biochemical; conditions: 100 micromolar inhibitor concentration; 100 is no change
Sequence (Q15303 26-1308, species assumed): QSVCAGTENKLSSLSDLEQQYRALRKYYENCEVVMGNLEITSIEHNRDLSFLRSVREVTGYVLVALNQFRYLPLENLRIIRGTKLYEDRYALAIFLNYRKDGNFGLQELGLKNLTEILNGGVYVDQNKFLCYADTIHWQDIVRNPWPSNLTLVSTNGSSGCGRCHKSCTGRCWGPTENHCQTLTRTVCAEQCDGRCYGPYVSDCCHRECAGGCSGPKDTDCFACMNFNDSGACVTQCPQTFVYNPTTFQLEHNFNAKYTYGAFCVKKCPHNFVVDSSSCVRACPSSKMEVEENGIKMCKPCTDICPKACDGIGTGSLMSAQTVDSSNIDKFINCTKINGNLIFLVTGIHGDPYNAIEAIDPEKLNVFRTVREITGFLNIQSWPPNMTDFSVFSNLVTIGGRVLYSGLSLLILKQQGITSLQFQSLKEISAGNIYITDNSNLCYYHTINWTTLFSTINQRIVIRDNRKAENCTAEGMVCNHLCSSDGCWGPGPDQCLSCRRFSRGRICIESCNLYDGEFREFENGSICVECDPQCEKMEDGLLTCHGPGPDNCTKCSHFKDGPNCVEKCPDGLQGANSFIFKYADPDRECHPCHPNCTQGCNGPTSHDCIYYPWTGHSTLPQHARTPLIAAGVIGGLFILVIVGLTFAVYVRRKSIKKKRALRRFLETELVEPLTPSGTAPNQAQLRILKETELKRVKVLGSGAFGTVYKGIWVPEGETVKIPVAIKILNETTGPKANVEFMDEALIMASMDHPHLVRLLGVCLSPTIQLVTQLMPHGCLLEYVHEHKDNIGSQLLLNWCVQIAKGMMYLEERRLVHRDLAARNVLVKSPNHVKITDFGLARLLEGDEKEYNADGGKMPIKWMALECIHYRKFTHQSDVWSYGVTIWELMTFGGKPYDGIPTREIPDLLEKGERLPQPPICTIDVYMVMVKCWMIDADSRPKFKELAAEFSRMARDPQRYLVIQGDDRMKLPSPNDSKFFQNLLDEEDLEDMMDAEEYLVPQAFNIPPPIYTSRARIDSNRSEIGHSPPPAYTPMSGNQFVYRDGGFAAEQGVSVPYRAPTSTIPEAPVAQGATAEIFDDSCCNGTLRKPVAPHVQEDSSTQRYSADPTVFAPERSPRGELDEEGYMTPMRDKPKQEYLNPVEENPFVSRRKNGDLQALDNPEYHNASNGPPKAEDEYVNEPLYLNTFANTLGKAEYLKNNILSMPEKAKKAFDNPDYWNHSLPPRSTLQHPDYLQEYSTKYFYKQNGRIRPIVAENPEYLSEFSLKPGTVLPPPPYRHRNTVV
readout: residual kinase activity, HER4
Write no unit; give the number alone.

// CC(=O)Nc1nc2ccccc2s1 [Compound 03-32] : residual kinase activity, HER4 value = 78

// N#Cc1ccc2nc(NC(=O)c3ccccc3)sc2c1 [Compound 03-106] : residual kinase activity, HER4 value = 82

// COc1ccc2sc(NC(=O)c3ccccc3)nc2c1 [Compound 03-95] : residual kinase activity, HER4 value = 81

// COc1ccc2nc(NC(=O)c3ccccc3)sc2c1 [Compound 03-98] : residual kinase activity, HER4 value = 73

// CC(=O)Nc1nc2ccc(F)cc2s1 [Compound 03-94] : residual kinase activity, HER4 value = 101

// O=C(Nc1nc2cc(O)ccc2s1)c1cccnc1 [Compound 03-33] : residual kinase activity, HER4 value = 48

// CC(=O)Nc1nc2cc(C)ccc2s1 [Compound 03-76] : residual kinase activity, HER4 value = 85

// O=C(Nc1nc2ccc(C(F)(F)F)cc2s1)c1ccccc1 [Compound 03-99] : residual kinase activity, HER4 value = 85

// O=C(Nc1nc2cc(O)ccc2s1)c1ccncc1 [Compound 03-11] : residual kinase activity, HER4 value = 96

// COc1ccc2sc(NC(=O)c3cccc(C(N)=O)c3)nc2c1 [Compound 03-113] : residual kinase activity, HER4 value = 103

// COC(=O)c1cccc(C(=O)Nc2nc3cc(OC)ccc3s2)c1 [Compound 03-108] : residual kinase activity, HER4 value = 99

// COC(=O)c1cccc(C(=O)Nc2nc3ccc(F)cc3s2)c1 [Compound 03-110] : residual kinase activity, HER4 value = 107

// O=C(Nc1nc2ccc(F)cc2s1)c1ccccc1 [Compound 03-92] : residual kinase activity, HER4 value = 90
